- SYSTEM_TESTED: recombinant BRD4 BD1 (Homo sapiens)
- Construct: for recombinant BRD4 BD1 and BRD4 BD2 proteins
- PROTOCOL_SUMMARY: Competitive fluorescence-polarization (FP) binding assay, BRD4 BD1
- EXPERIMENTAL_CONTEXT: FP competitive binding, BRD4 BD1; read-out: Binding affinities (FP) BRD4BD1 IC50
- Method: Fluorescence Polarization (FP) competitive binding studies were carried out using a FAM labeled fluorescent probe (ZBA248 or BRD-1F) to determine binding affinities of representative Compounds of the Disclosure for recombinant BRD4 BD1 and BRD4 BD2 proteins. […] Kd values of ZBA248 were calculated by fitting the sigmoidal dose-dependent FP increases as a function of protein concentrations using Graphpad Prism 6.0 software (Graphpad Software, San Diego, Calif.). […]
Hi! Just check whether IC50 is below 0.02 µM. Below gives true, equal or above gives false.

In the record for COc1cc2c(cc1-c1c(C)noc1C)[nH]c1nc(N)nc(Nc3c4c(nn3C(C)C)CCC4)c12 [Cpd. No. 292] , is IC50 less than 0.02 µM?
true

# check: IC50 < 0.02 µM for COc1nc2c(cc1-c1c(C)noc1C)[nH]c1nc(C)nc(Nc3cc(C(C)(C)C)nn3C)c12 [compound 314]
false

Find out if reported IC50 for COc1nc2c(cc1-c1c(C)noc1C)[nH]c1nc(C)nc(Nc3cccc(C)c3)c12 [compound 313] is less than 0.02 µM
false

A record lists COc1cc2c(nc1-c1c(C)noc1C)[nH]c1nc(C)nc(Nc3cc(C4CC4)nn3C)c12 [Cpd. No. 304] . Is its IC50 below 0.02 µM?
false

For this molecule, is IC50 lower than 0.02 µM? COc1c(-c2c(C)noc2C)cc2[nH]c3nc(C)nc(Nc4cc(C5CC5)nn4C)c3c2c1F [Cpd. No. 305]
false

Hello, is IC50 of the following molecule strictly smaller than 0.02 µM? CCn1nc(C2CC2)cc1Nc1nc(N)nc2[nH]c3cc(-c4c(C)noc4C)c(OC)cc3c12 [Cpd. No. 290]
true

Hi there! Is IC50 for COc1nc2c(cc1-c1c(C)noc1C)[nH]c1nc(C)nc(N(C)c3cc(C)nn3C(C)(C)C)c12 [compound 316] below 0.02 µM, do you know?
false

Bench note: check whether COc1nc2c(cc1-c1c(C)noc1C)[nH]c1nc(C)nc(Nc3c(C)cnn3C(C)C)c12 [compound 312] shows IC50 below 0.02 µM
false

Lab note: IC50 threshold 0.02 µM. Does this molecule come in strictly under it? COc1cc2c(cc1-c1c(C)noc1C)[nH]c1ccnc(Nc3c4c(nn3C(C)C)CCC4)c12 [Cpd. No. 286]
false

Record COc1cc2c(cc1-c1c(C)noc1C)[nH]c1nc(N)nc(Nc3cc(C4CC4)nn3C3CC3)c12 [Cpd. No. 291] : is its IC50 strictly below 0.02 µM?
true

Please let me know if COCCOCc1nc(Nc2cc(C3CC3)nn2C)c2c(n1)[nH]c1cc(-c3c(C)noc3C)c(OC)cc12 [Cpd. No. 288] shows IC50 below 0.02 µM.
true

Hi there! Is IC50 for COc1nc2c(cc1-c1c(C)noc1C)[nH]c1nc(C)nc(N(C)c3cc(C4CC4)nn3C)c12 [compound 320] below 0.02 µM, do you know?
true

Would you kindly verify if IC50 of COc1nc2c(cc1-c1c(C)noc1C)[nH]c1nc(C)nc(N(C)c3c(C)cnn3C(C)C)c12 [compound 319] is strictly less than 0.02 µM?
false

Lab log: compare recorded IC50 with 0.02 µM; is it strictly lower for COc1cc2c([nH]c3nc(C)nc(N(C)c4cc(C5CC5)nn4C)c32)c(F)c1-c1c(C)noc1C [Cpd. No. 308] ?
false
